# Test system: MCF7
# TEST DESCRIPTION: cells
# MEASUREMENT SETUP: Homo sapiens, MCF7, 72 h
# Description: Cytotoxicity against human MCF7 cells assessed as reduction in cell viability incubated for 72 hrs by MTT assay
PROPERTY MEASURED: pIC50
// pIC50 here means minus log10 of the molar concentration (mol/L)

Notebook: "Cc1ccc2nc(NC(=O)CSc3nc(O)c(C#N)c(-c4coc5ccccc5c4=O)n3)sc2c1" , pIC50 read as 6.16
